Origin of measurements: paper PMC8053989

# System: SARS-CoV-2 replicon
# ASSAY_SUMMARY: microbe, parasite or virus in culture
# Assay type: cell-based
# SETTINGS: read-out: EC50
PROPERTY: EC50 (nM)
Numbers only, in nM.

Below are worked cases with known answers.
# COMPOUND, TEST_VALUE
data = [
    ("COc1cccc2[nH]c(C(=O)N[C@@H](CC(C)C)C(=O)N[C@@H](C[C@@H]3CCNC3=O)C(=O)CO)cc12", 75.2),
    ("CC(C)C[C@H](NC(=O)OCc1ccccc1)C(=O)N[C@@H](CC1CCNC1=O)C(O)S(=O)(=O)O (stereo partly drawn)", 20.8),
]

We now examine a further compound.
The recorded EC50 for entry CC(C)C[C@H](NC(=O)OCc1ccccc1)C(=O)N[C@H](C=O)C[C@@H]1CCNC1=O equals 20.3

---

# Tested on: SARS-CoV-2 replicon
# ASSAY_SUMMARY: microbe, parasite or virus in culture
# Assay type: cell-based
# SETTINGS: Severe acute respiratory syndrome coronavirus 2; Vero cells, compound alone
Please go through the items and note down their EC50.

# MOLECULE, EC50
measured = [
    ("COc1cc2c(cc1OC)CN(CCc1ccc(NC(=O)c3cccc4c(=O)c5cccc(OC)c5[nH]c34)cc1)CC2", "> 4.67 µM"),
    ("CCC(CC)COC(=O)[C@H](C)N[P@](=O)(OC[C@H]1O[C@@](C#N)(c2ccc3c(N)ncnn23)[C@H](O)[C@@H]1O)Oc1ccccc1", "2.24 µM"),
]

Look up EC50 for the entries below, preserving their order.
1. CN(C)C(=O)COC(=O)Cc1ccc(OC(=O)c2ccc(NC(=N)N)cc2)cc1
2. N#C[C@@]1(c2ccc3c(N)ncnn23)O[C@H](CO)[C@@H](O)[C@H]1O
3. CC(C)(C)NC(=O)N[C@H](C(=O)N1C[C@H]2[C@@H]([C@H]1C(=O)NC(CC1CCC1)C(=O)C(N)=O)C2(C)C)C(C)(C)C (stereo partly drawn)
4. CC(C)C[C@H](NC(=O)c1cc2ccccc2o1)C(=O)N[C@H]1CC[C@@H](C)N(S(=O)(=O)c2ccccn2)CC1=O

1. > 42 µM
2. 0.302 µM
3. 16.6 µM
4. > 42 µM

---

Please go through the items and note down their pEC50.
# System: SARS-CoV-2 replicon
# ASSAY_SUMMARY: microbe, parasite or virus in culture
# Type: cell-based
# SETTINGS: A549 cells, compound alone
Numbers only, as −log10 of the molar value.

Look up pEC50 for the entries below, preserving their order.
1. COc1cccc2[nH]c(C(=O)N[C@@H](CC(C)C)C(=O)N[C@@H](C[C@@H]3CCNC3=O)C(=O)CO)cc12
2. CC(C)C[C@H](NC(=O)OCc1ccccc1)C(=O)N[C@@H](CC1CCNC1=O)C(O)S(=O)(=O)O (stereo partly drawn)

1: 7.12; 2: 6.24

The recorded pEC50 for entry CC(C)C[C@H](NC(=O)OCc1ccccc1)C(=O)N[C@H](C=O)C[C@@H]1CCNC1=O equals 6.27

---

# Tested on: SARS-CoV-2 replicon
# ASSAY_SUMMARY: microbe, parasite or virus in culture
# Format: cell-based
# SETTINGS: Huh-7.5 cells
PROPERTY: EC50 (nM)
One number for each entry, in nM.

# COMPOUND, TEST_SYSTEM, EC50, nM
measured = [
    ("CC(C)C[C@H](NC(=O)OCc1ccccc1)C(=O)N[C@@H](CC1CCNC1=O)C(O)S(=O)(=O)O (some centres unmarked) [GC376]", "SARS-CoV-2 replicon", 19.4),
]

We now examine a further compound.
The recorded EC50 for entry COc1cccc2[nH]c(C(=O)N[C@@H](CC(C)C)C(=O)N[C@@H](C[C@@H]3CCNC3=O)C(=O)CO)cc12 [PF-00835231] equals 175

---

# Test system: SARS-CoV-2 replicon
# ASSAY_SUMMARY: microbe, parasite or virus in culture
# Format: cell-based
# SETTINGS: Severe acute respiratory syndrome coronavirus 2, HEK-293T, 30 h; read-out: potency (EC50) in inhibiting SARS-CoV-2 replicon replication, percent GFP signal
PROPERTY: EC50 (nM)
Give bare numbers, in nM.

Here N#C[C@@]1(c2ccc3c(N)ncnn23)O[C@H](CO)[C@@H](O)[C@H]1O was tested on SARS-CoV-2 replicon, and its EC50 came to 645

---

Please go through the items and note down their pEC50.
# System: SARS-CoV-2 replicon
# ASSAY_SUMMARY: microbe, parasite or virus in culture
# Format: cell-based
# SETTINGS: Vero cells, compound alone
Give bare numbers, as −log10 of the molar value.

Below are worked cases with known answers.
# COMPOUND, PROPERTY, TEST_VALUE
records = [
    ("COc1cccc2[nH]c(C(=O)N[C@@H](CC(C)C)C(=O)N[C@@H](C[C@@H]3CCNC3=O)C(=O)CO)cc12", "pEC50", 5.66),
    ("CC(C)C[C@H](NC(=O)OCc1ccccc1)C(=O)N[C@H](C=O)C[C@@H]1CCNC1=O", "pEC50", 6.51),
]

We now examine a further compound.
The recorded pEC50 for entry CC(C)C[C@H](NC(=O)OCc1ccccc1)C(=O)N[C@@H](CC1CCNC1=O)C(O)S(=O)(=O)O (stereo partly drawn) equals 6.63
